assayed-system: JAK2 (Homo sapiens, UniProt O60674)
Construct: GST; purchased Life Technologies
Sequence (O60674 whole entry): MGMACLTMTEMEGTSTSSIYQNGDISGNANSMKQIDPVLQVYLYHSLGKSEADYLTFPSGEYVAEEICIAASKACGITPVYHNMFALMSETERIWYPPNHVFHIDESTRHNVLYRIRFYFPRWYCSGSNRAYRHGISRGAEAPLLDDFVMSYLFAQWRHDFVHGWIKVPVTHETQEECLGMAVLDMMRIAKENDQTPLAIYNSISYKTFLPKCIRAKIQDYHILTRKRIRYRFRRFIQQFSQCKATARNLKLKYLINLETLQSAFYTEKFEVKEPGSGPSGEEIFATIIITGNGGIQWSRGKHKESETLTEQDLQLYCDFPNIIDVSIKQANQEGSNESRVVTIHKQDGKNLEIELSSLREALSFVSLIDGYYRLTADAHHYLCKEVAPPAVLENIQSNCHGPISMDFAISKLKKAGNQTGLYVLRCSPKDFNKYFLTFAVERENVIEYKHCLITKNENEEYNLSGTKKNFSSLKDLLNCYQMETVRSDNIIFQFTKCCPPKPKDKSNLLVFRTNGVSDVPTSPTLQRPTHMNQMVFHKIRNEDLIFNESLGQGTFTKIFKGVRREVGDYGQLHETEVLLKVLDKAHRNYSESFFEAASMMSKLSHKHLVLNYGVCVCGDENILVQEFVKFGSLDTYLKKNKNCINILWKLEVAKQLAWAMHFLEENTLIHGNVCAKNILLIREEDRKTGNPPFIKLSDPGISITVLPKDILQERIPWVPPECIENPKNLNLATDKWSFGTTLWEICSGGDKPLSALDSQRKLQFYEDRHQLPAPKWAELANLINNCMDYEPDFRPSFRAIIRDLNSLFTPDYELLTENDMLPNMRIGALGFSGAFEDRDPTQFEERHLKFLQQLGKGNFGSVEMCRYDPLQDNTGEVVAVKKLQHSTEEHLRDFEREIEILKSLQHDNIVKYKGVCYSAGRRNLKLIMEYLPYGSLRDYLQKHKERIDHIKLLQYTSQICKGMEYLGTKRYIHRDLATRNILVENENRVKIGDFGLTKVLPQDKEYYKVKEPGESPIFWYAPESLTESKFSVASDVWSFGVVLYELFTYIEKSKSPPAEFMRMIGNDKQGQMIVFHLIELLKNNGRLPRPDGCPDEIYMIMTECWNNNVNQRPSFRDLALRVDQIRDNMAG
assay-comment: Biochemical JAK2 kinase assay (LanthaScreen)
run-parameters: read-out: JAK 2 (pKi) (converted)
Entries and their measured Ki follow.
value-type: Ki

| compound | assayed-system | value-type | observed-value |
| --- | --- | --- | --- |
| C=CC(=O)N1C[C@@H](Oc2cc(-c3ccc(O)cc3)cc3[nH]ncc23)CC[C@@H]1C [Compound 12-33] | JAK2 (Homo sapiens, UniProt O60674) | Ki | > 0.1 µM |
| C=CC(=O)N1CCSC[C@H]1C(=O)Nc1cc(-c2ccc(O)cc2)cc2[nH]ncc12 [Compound 12-64] | JAK2 (Homo sapiens, UniProt O60674) | Ki | > 0.1 µM |
| C=CC(=O)N1CC(COc2cc(-c3ccc(O)c(OC)c3)cc3[nH]ncc23)C1 [Compound 3-83] | JAK2 (Homo sapiens, UniProt O60674) | Ki | > 0.1 µM |
| CN(C)C/C=C/C(=O)N1CC(C#N)(COc2cc(-c3ccc(O)c(F)c3)cc3[nH]ncc23)C1 [Compound 8] | JAK2 (Homo sapiens, UniProt O60674) | Ki | 0.01 to 0.1 µM |
| CN(C)C/C=C/C(=O)N1CC(COc2cc(-c3ccc(O)c(Cl)c3)cc3[nH]ncc23)C1 [Compound 3-2] | JAK2 (Homo sapiens, UniProt O60674) | Ki | > 0.1 µM |
| C=CC(=O)N1CC[C@H](S(=O)(=O)c2cc(-c3ccc(O)cc3)cc3[nH]ncc23)C1 [Compound 13] | JAK2 (Homo sapiens, UniProt O60674) | Ki | > 0.1 µM |
| C=CC(=O)N1CC[C@H](Oc2cc(-c3ccc(O)c(Cl)c3)cc3[nH]nc(SC)c23)C1 [Compound 1-41] | JAK2 (Homo sapiens, UniProt O60674) | Ki | > 0.1 µM |
| C=CC(=O)N1CC[C@H](Oc2cc(-c3ccc(O)cc3F)cc3[nH]ncc23)C1 [Compound 1-17] | JAK2 (Homo sapiens, UniProt O60674) | Ki | 0.01 to 0.1 µM |

----------
assayed-system: JAK3 (Homo sapiens)
Sequence (P52333 1-1124): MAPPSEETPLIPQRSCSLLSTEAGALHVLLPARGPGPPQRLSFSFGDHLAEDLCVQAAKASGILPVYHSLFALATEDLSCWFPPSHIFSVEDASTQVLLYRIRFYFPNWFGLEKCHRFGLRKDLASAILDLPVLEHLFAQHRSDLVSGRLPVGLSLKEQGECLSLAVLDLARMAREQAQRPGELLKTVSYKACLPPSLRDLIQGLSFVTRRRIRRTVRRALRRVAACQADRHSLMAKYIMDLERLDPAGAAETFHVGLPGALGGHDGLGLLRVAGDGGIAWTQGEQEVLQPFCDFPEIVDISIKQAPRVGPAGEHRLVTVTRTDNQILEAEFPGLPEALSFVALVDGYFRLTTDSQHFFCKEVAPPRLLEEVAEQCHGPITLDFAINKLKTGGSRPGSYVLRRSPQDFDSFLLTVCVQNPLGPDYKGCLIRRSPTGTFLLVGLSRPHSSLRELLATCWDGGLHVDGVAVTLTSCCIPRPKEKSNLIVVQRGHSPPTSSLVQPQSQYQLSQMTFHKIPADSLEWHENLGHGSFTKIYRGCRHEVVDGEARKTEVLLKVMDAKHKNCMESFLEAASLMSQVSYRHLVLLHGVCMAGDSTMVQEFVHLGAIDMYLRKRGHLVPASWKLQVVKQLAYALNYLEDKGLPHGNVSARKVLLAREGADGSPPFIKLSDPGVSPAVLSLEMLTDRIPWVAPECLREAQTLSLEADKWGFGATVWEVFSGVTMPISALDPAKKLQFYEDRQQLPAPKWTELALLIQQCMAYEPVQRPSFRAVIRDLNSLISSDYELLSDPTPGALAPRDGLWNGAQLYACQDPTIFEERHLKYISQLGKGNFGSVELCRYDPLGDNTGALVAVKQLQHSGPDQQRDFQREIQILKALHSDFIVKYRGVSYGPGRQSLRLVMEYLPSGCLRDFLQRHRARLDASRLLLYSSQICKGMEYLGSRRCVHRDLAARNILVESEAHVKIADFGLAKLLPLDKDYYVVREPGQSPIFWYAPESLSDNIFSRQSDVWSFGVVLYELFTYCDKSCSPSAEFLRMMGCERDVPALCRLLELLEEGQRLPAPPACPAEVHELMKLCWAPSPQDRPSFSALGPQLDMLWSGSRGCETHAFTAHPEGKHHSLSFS
assay-comment: Biochemical JAK3 kinase assay (LanthaScreen)
Design: GST; purchased Life Technologies
run-parameters: selectivity: difference of pKi JAK3 and pKi JAK1
Description: A panel of four LanthaScreen JAK biochemical assays (JAK1, 2, 3 and Tyk2) were carried in a common kinase reaction buffer (50 mM HEPES, pH 7.5, 0.01% Brij-35, 10 mM MgCl2, and 1 mM EGTA). […] Serially or discretely diluted compounds were pre-incubated with each of the four JAK enzymes and the substrate in white 384-well microplates (Corning) at ambient temperature for 1 h. […] The plates were allowed to incubate at ambient temperature for 1 h before being read on the EnVision reader (Perkin Elmer). […]

| record-smiles | JAK3 (pKi)-JAK1 (pKi) |
| --- | --- |
| C=CC(=O)N1CC(COc2cc(-c3ccc(O)cc3)cc3[nH]ncc23)(OC)C1 | B (a value of 2.3 to 3) |
| CN(C/C=C/C(=O)N1CC(COc2cc(-c3ccc(O)cc3)cc3[nH]ncc23)C1)C1CCC1 | B (a value of 2.3 to 3) |
